Data provenance: patent US20260232732A1

biological target: T1, biotin-peptide TSSMEDYVNF (human); experiment: ELISA biotin-peptide; scFv 10 ug/mL; repI
T1 peptide: Biotin-TSSMEDYVNF
Where no end group is shown, it is not given here. The star is where a group is joined. Biotin = O=C1N[C@H]2[C@H](CS[C@H]2CCCCC(=O)*)N1
Readout label: OD450 (OD)
The answer is to be given in OD; state only the numeric part.

Entry Comparative antibody 2 (Comp-2) scFv, 243LO326 (VH SEQ ID NO: 51 and VL SEQ ID NO: 52 of WO 2022/195028 A2), His-tagged (scFv) scFv: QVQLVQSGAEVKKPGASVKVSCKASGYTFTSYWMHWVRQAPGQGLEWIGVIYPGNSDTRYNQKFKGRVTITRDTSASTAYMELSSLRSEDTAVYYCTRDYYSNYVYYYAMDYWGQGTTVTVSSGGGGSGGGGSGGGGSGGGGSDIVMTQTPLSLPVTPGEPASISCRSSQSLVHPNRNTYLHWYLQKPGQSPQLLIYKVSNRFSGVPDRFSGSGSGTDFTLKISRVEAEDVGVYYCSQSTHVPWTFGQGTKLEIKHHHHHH has what OD450?
0.08

Here is the next binder: CCR9_HUM2 scFv (humanized anti-CCR9 scFv, SEQ ID NO: 17 with C-terminal 6xHis tag) (scFv) scFv: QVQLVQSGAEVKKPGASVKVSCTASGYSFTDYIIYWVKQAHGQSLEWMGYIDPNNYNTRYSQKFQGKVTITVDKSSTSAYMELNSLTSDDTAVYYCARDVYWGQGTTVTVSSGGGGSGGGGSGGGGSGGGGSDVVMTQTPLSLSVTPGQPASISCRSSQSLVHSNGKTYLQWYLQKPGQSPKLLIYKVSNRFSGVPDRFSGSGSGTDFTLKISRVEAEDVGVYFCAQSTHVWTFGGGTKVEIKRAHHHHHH
2.05

Here is the next binder: Comparative antibody 1 (Comp-1) scFv, SEQ ID NO: 10 from WO2023/037125 A1, His-tagged (scFv) scFv: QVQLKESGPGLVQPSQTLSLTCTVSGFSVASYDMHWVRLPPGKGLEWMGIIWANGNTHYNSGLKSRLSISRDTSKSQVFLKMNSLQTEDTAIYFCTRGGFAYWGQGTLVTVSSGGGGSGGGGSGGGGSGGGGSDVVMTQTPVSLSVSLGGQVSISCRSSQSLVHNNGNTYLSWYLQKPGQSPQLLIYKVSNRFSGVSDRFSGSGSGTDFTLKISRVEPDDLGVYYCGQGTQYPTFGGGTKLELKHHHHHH
0.1

Here is the next binder: Comparative antibody 3 (Comp-3) scFv, SR_92R (Somovilla-Crespo et al. 2018), His-tagged (scFv) scFv: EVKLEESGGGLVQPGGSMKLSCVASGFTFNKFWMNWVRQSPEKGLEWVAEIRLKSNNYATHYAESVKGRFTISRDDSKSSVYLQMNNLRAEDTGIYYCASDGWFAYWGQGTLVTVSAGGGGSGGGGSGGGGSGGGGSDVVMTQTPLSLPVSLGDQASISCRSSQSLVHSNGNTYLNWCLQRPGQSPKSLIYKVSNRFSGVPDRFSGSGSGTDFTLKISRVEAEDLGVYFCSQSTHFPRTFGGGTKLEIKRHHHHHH
0.1
